Provenance of the data: the supplement of paper PMC12667976

B1: library; numbered along this chain (parent)
chain: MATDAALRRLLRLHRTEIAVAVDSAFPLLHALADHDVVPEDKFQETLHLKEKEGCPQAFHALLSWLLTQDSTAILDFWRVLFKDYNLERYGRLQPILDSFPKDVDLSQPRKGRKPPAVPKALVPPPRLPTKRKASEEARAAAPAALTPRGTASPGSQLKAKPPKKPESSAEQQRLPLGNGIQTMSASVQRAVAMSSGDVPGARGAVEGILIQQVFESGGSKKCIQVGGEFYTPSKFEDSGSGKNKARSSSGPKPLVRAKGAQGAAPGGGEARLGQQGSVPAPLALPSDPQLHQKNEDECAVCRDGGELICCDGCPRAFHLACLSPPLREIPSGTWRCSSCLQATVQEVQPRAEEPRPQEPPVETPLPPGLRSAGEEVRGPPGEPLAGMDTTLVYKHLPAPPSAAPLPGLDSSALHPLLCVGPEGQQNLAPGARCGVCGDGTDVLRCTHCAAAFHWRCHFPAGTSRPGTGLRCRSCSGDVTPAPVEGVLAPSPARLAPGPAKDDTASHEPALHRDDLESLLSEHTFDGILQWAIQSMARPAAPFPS

# Variants of: B1
# Assay Info: AIRE transcriptional activation functional score (insulin promoter-GFP; nonsense median 0, synonymous median 1) (normalised score); higher = higher AIRE activity (more reporter activation)
# Condition Details: with insulin promoter-GFP reporter in HEK293
Measured AIRE transcriptional activation functional score accompanies every entry in the list below.

L97A
-0.272
E137C
0.524
P280Y
1.42

INPUT: Consider the variant `P544N` and give its recorded AIRE transcriptional activation functional score.
OUTPUT: -0.709

INPUT: Consider the variant `L516N` and give its recorded AIRE transcriptional activation functional score.
OUTPUT: 0.207

INPUT: Consider the variant `T447R` and give its recorded AIRE transcriptional activation functional score.
OUTPUT: 0.679

INPUT: Consider the variant `E354K` and give its recorded AIRE transcriptional activation functional score.
OUTPUT: 0.669

INPUT: Consider the variant `R303T` and give its recorded AIRE transcriptional activation functional score.
OUTPUT: 1.36

INPUT: Consider the variant `A399V` and give its recorded AIRE transcriptional activation functional score.
OUTPUT: 0.911

INPUT: Consider the variant `R351M` and give its recorded AIRE transcriptional activation functional score.
OUTPUT: 1.07
